- Procedure details: Compound was tested for amidase rate in the presence of N62C fully characterised enzyme
- Type: ADME
k cat/Km for assorted compounds
Use M⁻¹ s⁻¹ as the unit, but write only the number.

Field: example entries. Status: answers known.
| Chem smiles | Reading |
| --- | --- |
| COc1ccc(CSS(C)(=O)=O)cc1 | 93000 |
| CS(=O)(=O)SCc1ccccc1 | 379000 |
| CS(=O)(=O)SCc1c(F)c(F)c(F)c(F)c1F | 198000 |

# input for lookup
Record request: k cat/Km value, item `CS(=O)(=O)SCc1ccc(C(=O)O)cc1`
442000

----------
- Procedure details: Compound was tested for amidase rate in the presence of S166C screen enzyme
- Format: ADME
Endpoint name: k cat/Km (M⁻¹ s⁻¹)
Write the number in M⁻¹ s⁻¹ without appending the unit.

| Chem smiles | Unit tag | k cat/Km |
| --- | --- | --- |
| CS(=O)(=O)SCc1ccccc1 | M⁻¹ s⁻¹ | 10000 |
| CS(=O)(=O)SCc1ccc(C(=O)O)cc1 | M⁻¹ s⁻¹ | 16000 |
| CS(=O)(=O)SCc1c(F)c(F)c(F)c(F)c1F | M⁻¹ s⁻¹ | 14000 |

Now take the following molecule into account.
Report k cat/Km for `COc1ccc(CSS(C)(=O)=O)cc1` please.
17000

----------
Recorded k cat/Km, one value per entry.
- Procedure details: Compound was tested for amidase rate in the presence of N62C screen enzyme
- Format: ADME
Lab book: enter the figure in M⁻¹ s⁻¹, no units written.

The examples below pair each entry with its known result.
| Chem smiles | Endpoint name | Reading |
| --- | --- | --- |
| CS(=O)(=O)SCc1c(F)c(F)c(F)c(F)c1F | k cat/Km | 111000 |
| COc1ccc(CSS(C)(=O)=O)cc1 | k cat/Km | 86000 |
| CS(=O)(=O)SCc1ccc(C(=O)O)cc1 | k cat/Km | 74000 |

# ---- query compound ----
What does the record list as k cat/Km for `CS(=O)(=O)SCc1ccccc1` ?
207000

----------
- Procedure details: Compound was tested for esterase rate in the presence of N62C screen enzyme
- Format: ADME
Endpoint name: k cat/Km (mM⁻¹ s⁻¹)
The reply should contain only the number, in mM⁻¹ s⁻¹.

Recorded results for 2 compounds are shown here.
| Chem smiles | k cat/Km, mM⁻¹ s⁻¹ |
| --- | --- |
| CS(=O)(=O)SCc1c(F)c(F)c(F)c(F)c1F | 7520 |
| CS(=O)(=O)SCc1ccc(C(=O)O)cc1 | 7680 |

What does the record list as k cat/Km for `CS(=O)(=O)SCc1ccccc1` ?
6510

Quick one: k cat/Km for `COc1ccc(CSS(C)(=O)=O)cc1` ?
5680

----------
Entries and their measured k cat/Km follow.
- Procedure details: Compound was tested for amidase rate in the presence of S166C fully characterised enzyme
- Format: ADME
Write the number in M⁻¹ s⁻¹ without appending the unit.

Reference set, count: 2
| Chem smiles | k cat/Km (M⁻¹ s⁻¹) |
| --- | --- |
| CS(=O)(=O)SCc1ccc(C(=O)O)cc1 | 72000 |
| CS(=O)(=O)SCc1ccccc1 | 20000 |

Look at this compound and give its reported k cat/Km. `CS(=O)(=O)SCc1c(F)c(F)c(F)c(F)c1F`
67000

Given `COc1ccc(CSS(C)(=O)=O)cc1` , state its recorded k cat/Km.
68000

----------
- Procedure details: Compound was tested for esterase rate in the presence of S166C screen enzyme
- Format: ADME
Endpoint name: k cat/Km (mM⁻¹ s⁻¹)
Your answer should be a plain number; it is taken to be in mM⁻¹ s⁻¹.

Example cases with answers are listed next.
| Chem smiles | Unit tag | k cat/Km |
| --- | --- | --- |
| CS(=O)(=O)SCc1ccccc1 | mM⁻¹ s⁻¹ | 1160 |
| CS(=O)(=O)SCc1ccc(C(=O)O)cc1 | mM⁻¹ s⁻¹ | 2370 |
| CS(=O)(=O)SCc1c(F)c(F)c(F)c(F)c1F | mM⁻¹ s⁻¹ | 784 |

API: the following record is the query input.
What k cat/Km value was documented for this compound, `COc1ccc(CSS(C)(=O)=O)cc1` ?
1746

----------
The reader will find reported k cat/Km values listed item by item below.
- Procedure details: Compound was tested for esterase rate in the presence of N62C fully characterised enzyme
- Format: ADME
Report the figure in M⁻¹ s⁻¹ without appending any unit label.

So what's the measured k cat/Km for this one? `COc1ccc(CSS(C)(=O)=O)cc1`
7.87e+06

Give its k cat/Km value. Item: `CS(=O)(=O)SCc1ccccc1`
6.33e+06

Please give the measured k cat/Km for this compound: `CS(=O)(=O)SCc1ccc(C(=O)O)cc1`
5.07e+07

Entry under review: `CS(=O)(=O)SCc1c(F)c(F)c(F)c(F)c1F` . Reported k cat/Km?
1.426e+07

----------
- Procedure details: Compound was tested for esterase rate in the presence of S166C fully characterised enzyme
- Format: ADME
Endpoint name: k cat/Km (M⁻¹ s⁻¹)
Hi! Could you send only the number? It should be in M⁻¹ s⁻¹, unit omitted.

// below: answered molecules
| Chem smiles | Reading |
| --- | --- |
| CS(=O)(=O)SCc1ccc(C(=O)O)cc1 | 1.146e+07 |
| CS(=O)(=O)SCc1ccccc1 | 4.92e+06 |
| CS(=O)(=O)SCc1c(F)c(F)c(F)c(F)c1F | 5.198e+06 |

For `COc1ccc(CSS(C)(=O)=O)cc1` , what is its reported k cat/Km?
5.798e+06

All values here come from ChEMBL document CHEMBL1130942.
